protocol_description: Liver microsomal binding
Format: in vitro ADME
condition_details: rat, liver microsomes, 0.25 mg/mL, read-out: % Free in liver microsomes
measurement_type: fraction unbound at 1 μM

> print(dat)
                                   molecule  measured.value
1  C=CC(=O)N[C@H]1CCC[C@H]1NC(=O)c1sc2nccc3c2c1NC(=O)N3c1cnc(CC(C)C)cc1C (atropisomer, axis not shown)            0.84

----------
subject_of_test: BMX (Homo sapiens)
Sequence (P51813 1-675): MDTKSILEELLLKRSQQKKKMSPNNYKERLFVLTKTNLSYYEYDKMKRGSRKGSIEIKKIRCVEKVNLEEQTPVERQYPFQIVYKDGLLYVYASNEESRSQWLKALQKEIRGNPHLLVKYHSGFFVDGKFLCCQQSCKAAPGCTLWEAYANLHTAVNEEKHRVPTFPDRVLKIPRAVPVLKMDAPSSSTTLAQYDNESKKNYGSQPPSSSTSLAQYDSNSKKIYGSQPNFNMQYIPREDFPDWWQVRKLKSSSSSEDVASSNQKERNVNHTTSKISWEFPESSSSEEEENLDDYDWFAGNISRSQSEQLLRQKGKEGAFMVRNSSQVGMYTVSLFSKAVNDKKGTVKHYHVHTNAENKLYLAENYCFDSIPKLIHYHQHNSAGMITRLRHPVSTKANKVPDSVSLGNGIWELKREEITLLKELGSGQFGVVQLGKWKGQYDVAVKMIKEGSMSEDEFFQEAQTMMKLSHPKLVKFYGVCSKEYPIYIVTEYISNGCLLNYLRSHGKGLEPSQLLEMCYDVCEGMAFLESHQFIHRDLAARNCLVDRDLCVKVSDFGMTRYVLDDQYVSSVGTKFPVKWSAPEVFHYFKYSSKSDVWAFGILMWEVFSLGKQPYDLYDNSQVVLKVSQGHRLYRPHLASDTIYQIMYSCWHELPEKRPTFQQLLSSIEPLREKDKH
pIC50: −log10 of the molar value.

compound	pIC50
C=CC(=O)N[C@H]1CCC[C@H]1NC(=O)c1sc2nccc3c2c1NC(=O)N3c1cnc(CC(C)C)cc1C (atropisomer, axis not shown) [compound of Formula (III)]	6.76

----------
protocol_description: Metabolic stability in liver microsomes
Type: in vitro ADME, rat
condition_details: rat, liver microsomes
measurement_type: microsomal CLint (µL/min/mg)

> print(dat)
                                   compound  measured.value
1  C=CC(=O)N[C@H]1CCC[C@H]1NC(=O)c1sc2nccc3c2c1NC(=O)N3c1cnc(CC(C)C)cc1C (atropisomer, axis not shown)            53.8

----------
protocol_description: Phase 1 first-in-human study, plasma pharmacokinetics
Format: in vivo
condition_details: female, human, plasma, po, 36 mg, single 36 mg oral solution, female fasted; read-out: t1/2, dom (converted)
measurement_type: half-life (h)

> print(dat)
                                   molecule  measurement.type  measured.value
1  C=CC(=O)N[C@H]1CCC[C@H]1NC(=O)c1sc2nccc3c2c1NC(=O)N3c1cnc(CC(C)C)cc1C (atropisomer, axis not shown)         half-life             1.6

----------
protocol_description: Metabolic stability in hepatocytes
Type: in vitro ADME, monkey
condition_details: monkey, hepatocytes
measurement_type: hepatocyte CLint (µL/min/1e6 cells)

> print(dat)
                                   molecule  measured.value
1  C=CC(=O)N[C@H]1CCC[C@H]1NC(=O)c1sc2nccc3c2c1NC(=O)N3c1cnc(CC(C)C)cc1C (atropisomer, axis not shown)            66.3

----------
protocol_description: Preclinical PK, oral and IV
Format: in vivo, monkey
condition_details: monkey, in vivo; oral

compound	measure_unit	Tmax
C=CC(=O)N[C@H]1CCC[C@H]1NC(=O)c1sc2nccc3c2c1NC(=O)N3c1cnc(CC(C)C)cc1C (atropisomer, axis not shown) [compound of Formula (III)]	h	1.7

----------
subject_of_test: CYP3A4 (Homo sapiens)
Construct: with specific CYP probe substrates in human liver microsomes; from tissue; host or cells: human liver microsomes
Sequence (P08684 whole entry): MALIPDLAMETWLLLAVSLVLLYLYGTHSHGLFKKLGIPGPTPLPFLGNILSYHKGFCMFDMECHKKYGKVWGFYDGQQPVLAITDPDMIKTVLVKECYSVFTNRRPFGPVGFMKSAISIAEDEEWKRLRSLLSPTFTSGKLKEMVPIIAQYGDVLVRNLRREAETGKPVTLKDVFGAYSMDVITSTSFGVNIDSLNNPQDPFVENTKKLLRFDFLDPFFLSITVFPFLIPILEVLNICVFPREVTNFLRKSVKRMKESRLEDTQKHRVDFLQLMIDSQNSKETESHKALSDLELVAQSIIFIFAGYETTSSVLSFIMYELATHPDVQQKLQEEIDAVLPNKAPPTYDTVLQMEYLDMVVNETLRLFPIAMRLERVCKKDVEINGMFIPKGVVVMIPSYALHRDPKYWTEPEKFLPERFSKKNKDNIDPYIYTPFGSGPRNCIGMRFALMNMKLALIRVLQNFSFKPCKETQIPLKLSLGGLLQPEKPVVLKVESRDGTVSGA
protocol_description: CYP inhibition in human liver microsomes
Type: in vitro ADME
condition_details: probe Midazolam
pIC50: −log10 of the molar value.

compound	pIC50
C=CC(=O)N[C@H]1CCC[C@H]1NC(=O)c1sc2nccc3c2c1NC(=O)N3c1cnc(CC(C)C)cc1C (atropisomer, axis not shown) [compound of Formula (III)]	4.60

----------
protocol_description: Liver microsomal binding
Type: in vitro ADME
condition_details: dog, liver microsomes, 0.25 mg/mL, read-out: % Free in liver microsomes
Experimental: Additional Data on Preclinical PK Profile—Protein binding of the compound of Formula (III) was studied using an equilibrium dialysis method in plasma from human, cynomolgus monkey, beagle dog, Sprague Dawley rat, CD-1 mouse, and guinea pig at 0.25, 2.5, and 25 μM. […] In human and monkey, the plasma protein binding was concentration dependent. […]
measurement_type: fraction unbound at 1 μM

> print(dat)
                                   compound  measured.value
1  C=CC(=O)N[C@H]1CCC[C@H]1NC(=O)c1sc2nccc3c2c1NC(=O)N3c1cnc(CC(C)C)cc1C (atropisomer, axis not shown)           0.879

----------
protocol_description: Phase 1 first-in-human study, plasma pharmacokinetics
Type: in vivo
condition_details: male, human, plasma, po, 100 mg, single 100 mg oral solution, male fasted
measurement_type: AUC(0-inf)

molecule	measured_value
C=CC(=O)N[C@H]1CCC[C@H]1NC(=O)c1sc2nccc3c2c1NC(=O)N3c1cnc(CC(C)C)cc1C (atropisomer, axis not shown) [compound of Formula (III)]	20.6 ng·h/mL

----------
protocol_description: Preclinical PK, oral and IV
Type: in vivo, rat
condition_details: rat, in vivo, iv; read-out: Vss
measurement_type: Vd

> print(dat)
                                   compound  measured.value
1  C=CC(=O)N[C@H]1CCC[C@H]1NC(=O)c1sc2nccc3c2c1NC(=O)N3c1cnc(CC(C)C)cc1C (atropisomer, axis not shown)        1.9 L/kg

----------
protocol_description: Phase 1 first-in-human study, plasma pharmacokinetics
Format: in vivo
condition_details: male, human, plasma, po, 200 mg, single 200 mg oral solution, male fasted
measurement_type: Cmax (ng/mL)

> print(dat)
                                   compound  measure.unit  measured.value
1  C=CC(=O)N[C@H]1CCC[C@H]1NC(=O)c1sc2nccc3c2c1NC(=O)N3c1cnc(CC(C)C)cc1C (atropisomer, axis not shown)         ng/mL            1210

----------
protocol_description: Phase 1 first-in-human study, plasma pharmacokinetics
Format: in vivo
condition_details: female, human, plasma, po, 36 mg, single 36 mg oral solution, female fasted; read-out: AUC0-24 h
measurement_type: AUC(0-t) (ng·h/mL)

> print(dat)
                                   compound  measure.unit  measured.value
1  C=CC(=O)N[C@H]1CCC[C@H]1NC(=O)c1sc2nccc3c2c1NC(=O)N3c1cnc(CC(C)C)cc1C (atropisomer, axis not shown)       ng·h/mL             819

----------
protocol_description: Phase 1 first-in-human study, plasma pharmacokinetics
Format: in vivo
condition_details: both sexes, human, plasma, po, 100 mg, 100 mg QD oral solution, fed, Day 10; read-out: t1/2, λz (converted)
measurement_type: half-life (h)

> print(dat)
                                   compound  measure.unit  measured.value
1  C=CC(=O)N[C@H]1CCC[C@H]1NC(=O)c1sc2nccc3c2c1NC(=O)N3c1cnc(CC(C)C)cc1C (atropisomer, axis not shown)             h             9.6

----------
protocol_description: Phase 1 first-in-human study, plasma pharmacokinetics
Assay type: in vivo
condition_details: both sexes, human, plasma, po, 100 mg, 100 mg QD oral solution, fed, Day 10; read-out: AUC0-24 h
measurement_type: AUC(0-t) (ng·h/mL)

> print(dat)
                                   compound  measured.value
1  C=CC(=O)N[C@H]1CCC[C@H]1NC(=O)c1sc2nccc3c2c1NC(=O)N3c1cnc(CC(C)C)cc1C (atropisomer, axis not shown)            1690

----------
protocol_description: Phase 1 first-in-human study, plasma pharmacokinetics
Type: in vivo
condition_details: both sexes, human, plasma, po, 36 mg, 36 mg QD oral solution, fed, Day 10; read-out: tmax, median (min-max)
measurement_type: Tmax (h)

> print(dat)
                                   compound  measurement.type  measure.unit  measured.value
1  C=CC(=O)N[C@H]1CCC[C@H]1NC(=O)c1sc2nccc3c2c1NC(=O)N3c1cnc(CC(C)C)cc1C (atropisomer, axis not shown)              Tmax             h               2
